# Protocol Notes: in vitro
# Condition Details: human
Measured Property: IC50 at 72 h (µM)
Hi! Could you send only the number? It should be in µM, unit omitted.

Please indicate IC50 at 72 h recorded for O=C(NO)c1cc(Cn2c(=O)n(CCc3ccccc3)c(=O)c3ccccc32)cs1 [Compound 25]
105

Others:
Please indicate IC50 at 72 h recorded for O=C(NO)c1ccc(Cn2c(=O)n(CCc3ccccc3)c(=O)c3cc(F)ccc32)cc1 [Compound 17]
101

Please indicate IC50 at 72 h recorded for O=C(NO)c1ccc(Cn2c(=O)n(CCc3ccccc3)c(=O)c3ccc(Cl)cc32)cc1 [Compound 8]
75.8

Please indicate IC50 at 72 h recorded for O=C(NO)c1ccc(Cn2c(=O)n(CCc3ccc(F)cc3)c(=O)c3ccccc32)cc1 [Compound 14]
83.8

====

# Tested on: A549
# Condition Details: human, 72 h
Measured Property: pIC50
Quick note: pIC50 values are minus log10 of concentrations in mol/L.

Example entries begin here.
Please indicate pIC50 recorded for O=C(NO)c1ccc(Cn2c(=O)n(Cc3ccccc3)c(=O)c3ccccc32)cc1
5.32

Please indicate pIC50 recorded for O=C(NO)c1cccc(Cn2c(=O)n(CCc3ccccc3)c(=O)c3ccccc32)c1
5.39

Please indicate pIC50 recorded for O=C(NO)c1ccc(Cn2c(=O)n(CCc3ccccc3)c(=O)c3ccsc32)cc1
5.49

Please indicate pIC50 recorded for Cn1c(=O)c2ccc(Cl)cc2n(Cc2ccc(C(=O)NO)cc2)c1=O
5.09

Please examine the following record next.
Please indicate pIC50 recorded for O=C(NO)c1ccc(Cn2c(=O)n(CCc3ccccc3)c(=O)c3cc(F)ccc32)cc1
5.05

====

Recorded IC50 for the following compounds
# Experimental Target: Human HDAC1 (Homo sapiens (Human))
# Sequence (Q13547 whole entry): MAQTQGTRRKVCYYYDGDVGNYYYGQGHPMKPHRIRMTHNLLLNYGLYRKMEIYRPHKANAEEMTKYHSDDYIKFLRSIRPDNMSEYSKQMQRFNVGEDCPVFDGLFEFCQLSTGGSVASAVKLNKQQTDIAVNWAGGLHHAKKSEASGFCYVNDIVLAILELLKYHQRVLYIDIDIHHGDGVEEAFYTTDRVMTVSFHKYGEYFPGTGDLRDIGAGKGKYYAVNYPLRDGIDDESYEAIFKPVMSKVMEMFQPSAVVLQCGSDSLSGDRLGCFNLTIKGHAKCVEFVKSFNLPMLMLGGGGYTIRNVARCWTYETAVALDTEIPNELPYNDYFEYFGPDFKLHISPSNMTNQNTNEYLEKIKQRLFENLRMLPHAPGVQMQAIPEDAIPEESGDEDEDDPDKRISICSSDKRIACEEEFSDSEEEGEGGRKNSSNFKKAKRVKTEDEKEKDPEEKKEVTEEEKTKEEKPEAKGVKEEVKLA
Hi! Could you send only the number? It should be in µM, unit omitted.

Example entries begin here.
# lookup: Human HDAC1 (Homo sapiens (Human)) IC50, key = O=C(NO)c1ccc(Cn2c(=O)n(CCc3ccccc3O)c(=O)c3ccccc32)cc1
8.83

# lookup: Human HDAC1 (Homo sapiens (Human)) IC50, key = Cn1c(=O)c2ccc(Cl)cc2n(Cc2ccc(C(=O)NO)cc2)c1=O
2.72

# lookup: Human HDAC1 (Homo sapiens (Human)) IC50, key = O=C(NO)c1ccc(Cn2c(=O)n(CCc3ccccc3)c(=O)c3ccc(C(F)(F)F)cc32)cc1
8.02

# lookup: Human HDAC1 (Homo sapiens (Human)) IC50, key = O=C(NO)c1ccc(Cn2c(=O)n(CCc3ccccc3)c(=O)c3cc(F)ccc32)cc1
13.4

# lookup: Human HDAC1 (Homo sapiens (Human)) IC50, key = COc1ccc2c(=O)n(CCc3ccccc3)c(=O)n(Cc3ccc(C(=O)NO)cc3)c2c1
12

Please examine the following record next.
# lookup: Human HDAC1 (Homo sapiens (Human)) IC50, key = O=C(NO)c1ccc(Cn2c(=O)n(CCc3ccccc3)c(=O)c3ccc(C4CC4)cc32)cc1
14.5

====

# System: MV4-11
# Protocol Notes: Cell proliferation assay MTT, MV4-11
# Condition Details: human, MV4-11 leukemia cells, 72 h
Measured Property: pIC50
Quick note: pIC50 values are minus log10 of concentrations in mol/L.

Example entries begin here.
Please indicate pIC50 recorded for O=C(Cc1ccc(Cn2c(=O)n(CCc3ccccc3)c(=O)c3ccccc32)c(F)c1)NO
5.73

Please indicate pIC50 recorded for O=C(NO)c1ccc(Cn2c(=O)n(CCc3ccccc3)c(=O)c3cc(F)ccc32)cc1
5.50

Please examine the following record next.
Please indicate pIC50 recorded for O=C(Cc1ccc(Cn2c(=O)n(CCc3ccccc3)c(=O)c3ccccc32)cc1)NO
5.52
